Origin of measurements: patent US20240208961A1

# protocol: Pharmacokinetic studies of certain compounds in female Balb/c mice (Example 5)
# Assay type: in vivo
# assay.conditions: female, Balb/c, mouse, plasma, iv, 1 mg/kg, I-3 IV 1 mg/kg, 1 hr, read-out: Plasma concentration Individual
assay.metric: concentration at 1 h (ng/mL)
Dear colleague, please return just the value in ng/mL, with no unit written.

Check the records and state concentration at 1 h for CC(C)Cc1sc(Nc2ncc(-c3cccs3)cc2C(=O)O)nc1C1CCCCC1
111

* * *

# protocol: Pharmacokinetic studies of certain compounds in female Balb/c mice (Example 5)
# Type: in vivo
# assay.conditions: female, Balb/c, mouse, plasma, iv, 1.48 mg/kg, I-29 IV 1.48 mg/kg, 0.5 hr, read-out: Plasma concentration Mean
assay.metric: concentration at 0.5 h (ng/mL)
Dear colleague, please return just the value in ng/mL, with no unit written.

Check the records and state concentration at 0.5 h for CC(C)Cc1sc(Nc2ncc(-c3cccs3)cc2C(=O)O)nc1C1CCC(F)(F)CC1
72.6
